Exercise: for every item that follows, state its recorded tissue uptake at 72 h.
Test: in vivo
Parameters: species or system mice
Conditions: male, NODSCID 1L2RγKO, mouse, iv, total radioactivity, Lacrimal uptake
Number in %ID/g, nothing else.

// query Query: tissue uptake at 72 h; subject: O=C(O)CCC[C@H](NC(=O)N[C@@H](CCCCNC(=O)[C@H](Cc1c2ccccc2cc2ccccc12)NC(=O)[C@H]1CC[C@H](CNC(=O)[C@H](CCCCNC(=O)CN2CCN(CC(=O)O)CCN(CC(=O)O)CCN(CC(=O)O)CC2)NC(=O)CNC(=O)CCCc2ccc(Cl)cc2)CC1)C(=O)O)C(=O)O [177Lu-HTK03153, metal not drawn]
// result 0.05

// query Record: COc1ccc(CCCC(=O)NCC(=O)N[C@@H](CCCCNC(=O)CN2CCN(CC(=O)O)CCN(CC(=O)O)CCN(CC(=O)O)CC2)C(=O)NC[C@H]2CC[C@H](C(=O)N[C@@H](Cc3c4ccccc4cc4ccccc34)C(=O)NCCCC[C@H](NC(=O)N[C@@H](COCC(=O)O)C(=O)O)C(=O)O)CC2)cc1 [177Lu-HTK04028, metal not drawn]
// result 0.01

// query Next record, please: COc1ccc(CCCC(=O)NCC(=O)N[C@@H](CCCCNC(=O)CN2CCN(CC(=O)O)CCN(CC(=O)O)CCN(CC(=O)O)CC2)C(=O)NC[C@H]2CC[C@H](C(=O)N[C@@H](Cc3c4ccccc4cc4ccccc34)C(=O)NCCCC[C@H](NC(=O)N[C@@H](CSCC(=O)O)C(=O)O)C(=O)O)CC2)cc1 [177Lu-HTK04048, metal not drawn]
// result 0.01

// query Another molecule: COc1ccc(CCCC(=O)NCC(=O)N[C@@H](CCCCNC(=O)CN2CCN(CC(=O)O)CCN(CC(=O)O)CCN(CC(=O)O)CC2)C(=O)NC[C@H]2CC[C@H](C(=O)N[C@@H](Cc3c4ccccc4cc4ccccc34)C(=O)NCCCC[C@H](NC(=O)N[C@@H](CCCC(=O)O)C(=O)O)C(=O)O)CC2)cc1 [177Lu-HTK03170, metal not drawn]
// result 0.01

// query Here is the next molecule: O=C(O)CCC[C@H](NC(=O)N[C@@H](CCCCNC(=O)[C@H](Cc1c2ccccc2cc2ccccc12)NC(=O)[C@H]1CC[C@H](CNC(=O)CN2CCN(CC(=O)O)CCN(CC(=O)O)CCN(CC(=O)O)CC2)CC1)C(=O)O)C(=O)O [177Lu-HTK03149, metal not drawn]
// result 0.01

###

Task for the reader: assign each of the following compounds its reported excreta dose per gram or mL at 1 h.
Assay: in vivo
Conditions: male, NODSCID 1L2RγKO, mouse, iv, total radioactivity, Urine uptake
Numeric only. Scale: %ID/g

// query Which value of excreta dose per gram or mL at 1 h has been reported for O=C(O)CC[C@H](NC(=O)N[C@@H](CCCCNC(=O)[C@H](Cc1c2ccccc2cc2ccccc12)NC(=O)[C@H]1CC[C@H](CNC(=O)CN2CCN(CC(=O)O)CCN(CC(=O)O)CCN(CC(=O)O)CC2)CC1)C(=O)O)C(=O)O [68Ga-HTK03041, metal not drawn] in the records?
// result 173

// query Next compound up: O=C(O)COC[C@H](NC(=O)N[C@@H](CCCCNC(=O)[C@H](Cc1c2ccccc2cc2ccccc12)NC(=O)[C@H]1CC[C@H](CNC(=O)CN2CCN(CC(=O)O)CCN(CC(=O)O)CCN(CC(=O)O)CC2)CC1)C(=O)O)C(=O)O [68Ga-HTK03187, metal not drawn]
// result 444
